PROTOCOL_TEXT: BSK_hDFCGF_Proliferation: Cell Proliferation Assessment in the BioMAP Diversity Plus: hDFCGF Assay (AID 2283059);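 further: curves fitted for both rise and fall of signal versus DMSO baseline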
COND: primary human foreskin fibroblasts
Active and inactive are the calls of the source. How the source made its calls: active means hit-call score of the fitted dose curve at least 0.9, where 1 is the maximum; inactive means score below 0.9.
Outcome codes: true (active), false (inactive)

# MOLECULE, CAT
records = [
    ("Oc1cc2ccccc2c2ccccc12", "true"),
    ("CCCCCCCCCCCCCC[N+](C)(C)C", "true"),
    ("CN(C)C=O", "false"),
    ("CCOC(=O)CC(O)(CC(=O)OCC)C(=O)OCC", "false"),
    ("CC1=C(/C=C/C(C)=C/C=C/C(C)=C/C(=O)O)C(C)(C)CCC1", "true"),
    ("Oc1cccc(O)c1", "false"),
    ("CCc1ccc(CCOc2ccc(CC3SC(=O)NC3=O)cc2)nc1 (configuration not stated)", "false"),
]

----------
Read-out: Transforming Growth Factor (TGFB1), TGFB1 (gene 7040)
PROTOCOL_TEXT: LTEA_HepaRG_TGFB1: Life Technologies and Expression Analysis (LTEA) Assay for Transforming Growth Factor (TGFB1) Transporter using HepaRG (AID 2283533)
COND: mRNA level, 48 h; actives raise or lower the signal
The source made the active and inactive calls. The calls were made as follows: active = hit-call score of the fitted dose curve at least 0.9, where 1 is the maximum; inactive = score below 0.9.

# COMPOUND, AC50
rows = [
    ("C=C(C)C(=O)OCCC(F)(F)C(F)(F)C(F)(F)C(F)(F)C(F)(F)C(F)(F)F", "inactive"),
    ("NC(=O)N(O)[C@@H]1C=C[C@H](Oc2cccc(Oc3ccc(F)cc3)c2)C1", "72.4 µM (active)"),
    ("CCN(CC)CCNc1ccc(CNC=O)c2sc3ccc(OC)cc3c(=O)c12", "inactive"),
    ("CC(O)CO (stereo unspecified)", "inactive"),
    ("O=C(O)c1ccccc1C(c1ccc(O)cc1)c1ccc(O)cc1", "inactive"),
    ("CCC(C)(C)C1CCC(O)CC1 (stereo unspecified)", "inactive"),
]

----------
PROTOCOL_TEXT: APR_HepG2_MitoMembPot_24hr: Apredica 24-hour HepG2 Assay for Mitochondrial Membrane Potential (AID 2282911)
COND: imaging, actives raise or lower the signal
The source made the active and inactive calls. The calls were made as follows: active = hit-call score of the fitted dose curve at least 0.9, where 1 is the maximum; inactive = score below 0.9.
Outcome codes: active, inactive

# COMPOUND, CAT
measured = [
    ("CC(C)(C)c1cc(C(C)(C)C)c(O)c(C(C)(C)C)c1", "inactive"),
    ("NC(=O)N(O)[C@@H]1C=C[C@H](Oc2cccc(Oc3ccc(F)cc3)c2)C1", "active"),
    ("CN1CCN(c2ccccc2/C=C2\\SCCN(c3ccc(Cl)c(Cl)c3)C2=O)CC1", "active"),
    ("CC#C[C@]1(O)CC[C@H]2[C@@H]3CCC4=CC(=O)CCC4=C3[C@@H](c3ccc(N(C)C)cc3)C[C@@]21C", "inactive"),
    ("Oc1cc2ccccc2c2ccccc12", "active"),
    ("CC(C)CCCCCCOC(=O)CCCCC(=O)OCCCCCCC(C)C", "inactive"),
    ("CCCCCCCCC(=O)O", "inactive"),
    ("OCCC(F)(F)C(F)(F)C(F)(F)C(F)(F)C(F)(F)C(F)(F)F", "inactive"),
    ("CC(C)(C)CC(C)(C)c1ccc(O)c(-n2nc3ccccc3n2)c1", "active"),
    ("COc1cc(CCC(=O)CC(=O)CCc2ccc(O)c(OC)c2)ccc1O", "inactive"),
    ("Cc1oc(-c2ccccc2)nc1CCOc1ccc(C[C@H](Nc2ccccc2C(=O)c2ccccc2)C(=O)O)cc1", "active"),
    ("CCOC(=O)CC(O)(CC(=O)OCC)C(=O)OCC", "inactive"),
    ("c1ccc2c(c1)ccc1ccccc12", "inactive"),
    ("O=C(OCCOCCOC(=O)c1ccccc1)c1ccccc1", "inactive"),
    ("O=[N+]([O-])c1ccc(O)cc1", "inactive"),
    ("CCCCCCCCCCCCCCCS(=O)(=O)Oc1ccccc1", "inactive"),
    ("COCC(C)O (stereo not given)", "active"),
    ("Cc1cc(C)c(O)c(C)c1", "inactive"),
    ("Cc1cc(CCN2CCN(c3nsc4ccccc34)CC2)cc2c1NC(=O)CC2(C)C", "inactive"),
    ("NC(=O)N1C(=O)C(C(=O)c2cc(Cl)cs2)c2cc(F)c(Cl)cc21 (stereo not given)", "inactive"),
    ("COC(=O)CCCCC(=O)OC", "inactive"),
    ("CCCCC(CC)COC(=O)CCCCC(=O)OCC(CC)CCCC (stereo not given)", "inactive"),
    ("CC(=O)NC1(c2cccc(F)c2)CCN(CC[C@@]2(c3ccc(Cl)c(Cl)c3)CN(c3ccccc3)C(=O)CO2)CC1", "active"),
    ("c1ccc2cc3c(ccc4ccccc43)cc2c1", "active"),
    ("CCCCOCCO", "inactive"),
]

----------
PROTOCOL_TEXT: CCTE_Shafer_MEA_acute_burst_number: CCTE's Neural Acute Assay for Single-Electrode Bursts, Shafer Lab (AID 2284013)
Activity calls are given as the source filed them. Rule for the calls: active = hit-call score of the fitted dose curve at least 0.9, where 1 is the maximum; inactive = score below 0.9.
READOUT_NAME: outcome

# CHEMICAL_SMILES, READOUT_NAME, TEST_VALUE
measured = [
    ("OCCC(F)(F)C(F)(F)C(F)(F)C(F)(F)C(F)(F)C(F)(F)C(F)(F)C(F)(F)F", "outcome", "inactive"),
    ("Oc1cc2ccccc2c2ccccc12", "outcome", "inactive"),
    ("Cc1cc(CCN2CCN(c3nsc4ccccc34)CC2)cc2c1NC(=O)CC2(C)C", "outcome", "inactive"),
    ("CN1CCN(c2ccccc2/C=C2\\SCCN(c3ccc(Cl)c(Cl)c3)C2=O)CC1", "outcome", "inactive"),
    ("CCCCCCCCCCCCCCCS(=O)(=O)Oc1ccccc1", "outcome", "inactive"),
    ("CCCCCCCCCCCCc1ccccc1S(=O)(=O)O", "outcome", "inactive"),
    ("CC[C@H](c1ccc(O)cc1)[C@@H](CC)c1ccc(O)cc1", "outcome", "inactive"),
    ("CC(C)(C)c1cc(C(C)(C)C)c(O)c(C(C)(C)C)c1", "outcome", "inactive"),
]

----------
SUBJECT_OF_TEST: Cellular tumor antigen p53 (Homo sapiens) (UniProt P04637)
Sequence (P04637 whole entry, looked up): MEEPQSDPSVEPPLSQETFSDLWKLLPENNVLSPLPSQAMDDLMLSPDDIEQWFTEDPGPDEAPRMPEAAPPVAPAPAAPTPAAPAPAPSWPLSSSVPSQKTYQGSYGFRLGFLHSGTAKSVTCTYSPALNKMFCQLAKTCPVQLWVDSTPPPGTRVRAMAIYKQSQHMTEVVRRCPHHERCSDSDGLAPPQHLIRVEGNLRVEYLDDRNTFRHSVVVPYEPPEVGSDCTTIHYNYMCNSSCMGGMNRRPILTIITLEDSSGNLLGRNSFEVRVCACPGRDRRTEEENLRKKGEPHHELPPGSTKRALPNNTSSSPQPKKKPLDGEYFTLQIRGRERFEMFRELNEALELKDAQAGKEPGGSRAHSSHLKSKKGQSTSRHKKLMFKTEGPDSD
PROTOCOL_TEXT: ATG_p53_CIS: Attagene CIS-FACTORIAL HepG2 Assay for human p53 Transcription Factor (AID 2282994)
COND: HepG2 p53 cis-element reporter, Attagene mRNA; actives raise or lower the signal
Calls of active or inactive are those of the source. The calls were made as follows: active = hit-call score of the fitted dose curve at least 0.9, where 1 is the maximum; inactive = score below 0.9.
Outcome codes: active, inactive

# COMPOUND, CAT
rows = [
    ("CC(=O)CC(C)(C)O", "inactive"),
    ("CCCCC(CC)COC(=O)CCCCC(=O)OCc1ccccc1 (stereo not given)", "inactive"),
    ("CC(C)(C)c1ccc(O)c(C(C)(C)C)c1", "inactive"),
    ("CC(C)(C)c1cccc(C(C)(C)C)c1O", "active"),
    ("CCC(C)(C)C1CCC(O)CC1 (stereo not given)", "inactive"),
]

----------
PROTOCOL_TEXT: CCTE_Shafer_MEA_acute_burst_percentage_mean: CCTE's Neural Acute Assay for Percentage of Spikes in a Burst, Shafer Lab (AID 2284017)
Activity calls are given as the source filed them. How the source made its calls: active means hit-call score of the fitted dose curve at least 0.9, where 1 is the maximum; inactive means score below 0.9.
Outcome codes: active, inactive

# MOLECULE, CAT
measured = [
    ("NC(=O)N(O)[C@@H]1C=C[C@H](Oc2cccc(Oc3ccc(F)cc3)c2)C1", "active"),
    ("O=c1c(-c2ccc(O)cc2)coc2cc(O)ccc12", "inactive"),
    ("CCCCCCCCCCCCc1ccccc1S(=O)(=O)O", "inactive"),
    ("CN(C)C=O", "inactive"),
    ("CC[C@H](c1ccc(O)cc1)[C@@H](CC)c1ccc(O)cc1", "inactive"),
    ("OC1CCC(C2CCCCC2)CC1 (centres undefined)", "active"),
    ("CCCOc1sc(C(=O)N2CCC(c3cc(CN)ccc3F)CC2)c(C)c1Br", "inactive"),
    ("CCc1ccc(CCOc2ccc(CC3SC(=O)NC3=O)cc2)nc1 (centres undefined)", "inactive"),
    ("CCCCCCCCCCCCN1CCCC1=O", "inactive"),
    ("Oc1cc2ccccc2c2ccccc12", "inactive"),
    ("OCCC(F)(F)C(F)(F)C(F)(F)C(F)(F)C(F)(F)C(F)(F)C(F)(F)C(F)(F)F", "inactive"),
    ("CCCCCCCCCCCCCCCS(=O)(=O)Oc1ccccc1", "inactive"),
    ("Cc1cc(CCN2CCN(c3nsc4ccccc34)CC2)cc2c1NC(=O)CC2(C)C", "active"),
    ("CC(C)CCCCCCOC(=O)CCCCC(=O)OCCCCCCC(C)C", "inactive"),
]

----------
Read-out: Cytochrome P450 7A1 (Homo sapiens)
PROTOCOL_TEXT: LTEA_HepaRG_CYP7A1: Life Technologies and Expression Analysis (LTEA) Assay for Cytochrome P450 7A1 (CYP7A1) using HepaRG (AID 2283496)
COND: mRNA level, 48 h; actives raise or lower the signal
Protocol: LTEA_HepaRG is a cell based, multiplexed-readout assay that uses HepaRG, a human liver cell line, with measurements taken at 48 hours after chemical dosing on a 96-well plate.LTEA_HepaRG_CYP7A1 is one of 102 assay component(s) measured in the LTEA HepaRG cell culture assay. It is a marker of NR mediated metabolism.Data from the assay component LTEA_HepaRG_CYP7A1 was analyzed into 1 endpoint. […]
The source made the active and inactive calls. Rule for the calls: active = hit-call score of the fitted dose curve at least 0.9, where 1 is the maximum; inactive = score below 0.9.
Outcome codes: 1 (yes) for active, 0 (no) for inactive

# COMPOUND, CAT
records = [
    ("Cc1cc(C)c(O)c(C)c1", "0 (no)"),
    ("OCCC(F)(F)C(F)(F)C(F)(F)C(F)(F)C(F)(F)C(F)(F)C(F)(F)C(F)(F)F", "0 (no)"),
    ("COc1ccc([N+](=O)[O-])cc1N", "0 (no)"),
    ("OC1CCCCC1", "0 (no)"),
    ("O=[N+]([O-])c1ccc(O)cc1", "0 (no)"),
    ("CCCCC(CC)COC(=O)CCCCC(=O)OCc1ccccc1 (stereo not drawn)", "0 (no)"),
    ("CCN(CC)CCNc1ccc(CNC=O)c2sc3ccc(OC)cc3c(=O)c12", "1 (yes)"),
    ("O=C(O)c1ccccc1C(c1ccc(O)cc1)c1ccc(O)cc1", "0 (no)"),
    ("C#C[C@]1(O)CC[C@H]2[C@@H]3CCC4=CC(=O)CC[C@@H]4[C@H]3CC[C@@]21C", "1 (yes)"),
    ("CCCCCCCCCCCCc1ccccc1S(=O)(=O)O", "1 (yes)"),
    ("CCCCCCC(=O)O", "0 (no)"),
    ("COC(=O)CCCCC(=O)OC", "0 (no)"),
    ("CCCCCCCCC(=O)O", "0 (no)"),
    ("CCCCCCCCCCCCN1CCCC1=O", "0 (no)"),
    ("c1ccc2c(c1)ccc1ccccc12", "0 (no)"),
    ("Oc1cc2ccccc2c2ccccc12", "1 (yes)"),
    ("CCC(C)(C)C1CCC(O)CC1 (stereo not drawn)", "0 (no)"),
    ("O=C(O)Cc1cc(I)c(Oc2cc(I)c(O)c(I)c2)c(I)c1", "1 (yes)"),
    ("OCCC(F)(F)C(F)(F)C(F)(F)C(F)(F)C(F)(F)C(F)(F)F", "0 (no)"),
    ("CC(C)CCCCCCOC(=O)CCCCC(=O)OCCCCCCC(C)C", "0 (no)"),
    ("CC(O)CO (stereo not drawn)", "0 (no)"),
    ("CC(=O)NC1(c2cccc(F)c2)CCN(CC[C@@]2(c3ccc(Cl)c(Cl)c3)CN(c3ccccc3)C(=O)CO2)CC1", "1 (yes)"),
    ("CC[C@H](c1ccc(O)cc1)[C@@H](CC)c1ccc(O)cc1", "1 (yes)"),
    ("Cc1cc(CCN2CCN(c3nsc4ccccc34)CC2)cc2c1NC(=O)CC2(C)C", "1 (yes)"),
    ("C=C(C)C(=O)OCCC(F)(F)C(F)(F)C(F)(F)C(F)(F)C(F)(F)C(F)(F)F", "0 (no)"),
    ("CCc1nn(C2CCCCC2)c2cc(C3(C#N)CCC(C(=O)O)CC3)ccc12 (stereo not drawn)", "1 (yes)"),
    ("CCCCOCCO", "0 (no)"),
    ("C[C@@H]1C[C@H]2[C@@H]3CCC4=CC(=O)C=C[C@]4(C)[C@@]3(F)[C@@H](O)C[C@]2(C)[C@@]1(O)C(=O)COP(=O)(O)O", "0 (no)"),
    ("N#C[C@@H]1CC(F)(F)CN1C(=O)CNC1CC2CCC(C1)N2c1ncccn1 (stereo partly drawn)", "0 (no)"),
    ("O=c1c(-c2ccc(O)cc2)coc2cc(O)ccc12", "0 (no)"),
    ("CCC(=C(c1ccc(O)cc1)c1ccc(OCCN(C)C)cc1)c1ccccc1", "0 (no)"),
    ("CCc1ccc(CCOc2ccc(CC3SC(=O)NC3=O)cc2)nc1 (stereo not drawn)", "1 (yes)"),
    ("Oc1cccc(O)c1", "0 (no)"),
]
